Taken from patent US4211772A.

Target: Aldose Reductase (Bos taurus)
Construct: The enzyme is extracted from beef eye lenses; from tissue; host or cells: beef eye lenses
Assay: Inhibition of aldose reductase in vitro (enzyme from beef eye lenses, glyceraldehyde substrate)
Format: biochemical
Details: 10^-6 mole/l, in DMF solution; read-out: percentages of inhibition (aldose reductase)
Text: Inhibition of Aldose Reductase In Vitro The reoxidation of NADPH coupled to the enzymatic reaction was followed spectrophotometrically at 340 nm.
Where inhibition at 1 µM equals or exceeds 9%, the correct label is 1 (yes); where it does not, the label is 0 (no).

- molecule: "C[C@@H]1O[C@@H](Oc2c(-c3cc(O)c(O)c(O)c3)oc3cc(O)cc(O)c3c2=O)[C@@H]2OC(C)(C)O[C@@H]2[C@H]1O"
  discrete label: "1 (yes)"
- molecule: "COc1ccc(C2(C)O[C@@H]3[C@@H](O)[C@H](C)O[C@@H](OC[C@H]4O[C@@H](Oc5c(-c6ccc(O)c(O)c6)oc6cc(O)cc(O)c6c5=O)[C@H](O)[C@@H](O)[C@@H]4O)[C@@H]3O2)cc1 (some centres unmarked)"
  discrete label: "1 (yes)"
- molecule: "C[C@@H]1O[C@@H](Oc2c(-c3ccc(O)c(O)c3)oc3cc(O)cc(O)c3c2=O)[C@@H]2OC(C)(C)O[C@@H]2[C@H]1O"
  discrete label: "1 (yes)"
- molecule: "C[C@@H]1O[C@@H](OC[C@H]2O[C@@H](Oc3c(-c4ccc(O)c(O)c4)oc4cc(O)cc(O)c4c3=O)[C@H](O)[C@@H](O)[C@@H]2O)[C@@H]2OC3(CCC4CCCCC4C3)O[C@@H]2[C@H]1O (some centres unmarked)"
  discrete label: "0 (no)"
